Recorded protein stability index for the following variants
B1: CDC14A (parent)
chain: LNLAMVYRYCCKLNKKLKSYSLSR

variants of: B1; experiment: protein stability index of a GFP-peptide fusion (GPS, HEK-293T) (PSI 1-6); higher = more stable; conditions: c terminus: a fixed tail appended;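 note: lentivirally expressed fusions sorted by FACS into six bins by GFP to DsRed ratio, PSI derived from sequencing read proportions per bin multiplied by bin number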

# construct sequence, protein stability index
rows = [
    ("LNLAMVYRYCCKLNKKRKSYSLSR [L17R]", 2.78),
    ("INLAMVYRYCCKLNKKLKSYSLSR [L1I]", 3.18),
    ("LNLAMVYRYCCKPNKKLKSYSLSR [L13P]", 1.2),
    ("LNLAMVYRYCCKLNKKLKCYSLSR [S19C]", 2.98),
    ("LNLAMVYRYCCKLNKKLKSPSLSR [Y20P]", 4.23),
    ("LNLAMVYRYCCHLNKKLKSYSLSR [K12H]", 1.73),
    ("LNLAMVYRYCCKLNKKLGSYSLSR [K18G]", 3.2),
    ("LNLAMVYRYCCKLNCKLKSYSLSR [K15C]", 4.37),
    ("LNLCMVYRYCCKLNKKLKSYSLSR [A4C]", 3.81),
    ("LNLAMVYRYCCKLNKKLVSYSLSR [K18V]", 2.46),
    ("LNLAMVYRYCCKLNKKLKSYSLSD [R24D]", 3.64),
    ("LNLAMVYRYCCKLTKKLKSYSLSR [N14T]", 3.41),
    ("LNLAMVYRYCCKLNKKLKSYSLSF [R24F]", 2.97),
    ("LNLAMVYRYCCKLNKKLISYSLSR [K18I]", 2.79),
    ("LNLAMVYLYCCKLNKKLKSYSLSR [R8L]", 3.17),
    ("LNTAMVYRYCCKLNKKLKSYSLSR [L3T]", 2.79),
    ("LNLAMVYRYCCKLNKKLKSYTLSR [S21T]", 2.92),
    ("LNLAMVYDYCCKLNKKLKSYSLSR [R8D]", 3.23),
    ("LNLAMVYRYCCKLNKLLKSYSLSR [K16L]", 2.13),
    ("LNLAMVYRYCCKLNDKLKSYSLSR [K15D]", 2.33),
    ("LNLAMVYRVCCKLNKKLKSYSLSR [Y9V]", 2.44),
    ("LNLAMVYRYCCKLNKKLKSYYLSR [S21Y]", 2.62),
    ("LNLAMVYRTCCKLNKKLKSYSLSR [Y9T]", 2.54),
    ("LNLAMVYRYCCKLNKKLKSYALSR [S21A]", 3.27),
    ("LNLAMVGRYCCKLNKKLKSYSLSR [Y7G]", 2.43),
    ("ANLAMVYRYCCKLNKKLKSYSLSR [L1A]", 2.44),
    ("LNLAMVLRYCCKLNKKLKSYSLSR [Y7L]", 3.34),
    ("LNLAMQYRYCCKLNKKLKSYSLSR [V6Q]", 2.85),
    ("LNLAMVYRYCCKLNKKLKSYSPSR [L22P]", 2.24),
    ("LNLAMVYRYCCKLAKKLKSYSLSR [N14A]", 3.35),
    ("LNLAMVYRYCCKLMKKLKSYSLSR [N14M]", 1.94),
    ("LNLAMVYRYCCKLNKKLKKYSLSR [S19K]", 2.19),
    ("LNLAMVYRYCCKLNKKLKSRSLSR [Y20R]", 2.17),
    ("LNLAMVYRYCCKCNKKLKSYSLSR [L13C]", 2.79),
    ("LNLAMVYRSCCKLNKKLKSYSLSR [Y9S]", 2.19),
    ("LNLAMVYTYCCKLNKKLKSYSLSR [R8T]", 2.03),
    ("LNLAMVYRYCCKLRKKLKSYSLSR [N14R]", 3.97),
    ("LNLAMVYHYCCKLNKKLKSYSLSR [R8H]", 4.35),
    ("LCLAMVYRYCCKLNKKLKSYSLSR [N2C]", 3.28),
    ("LTLAMVYRYCCKLNKKLKSYSLSR [N2T]", 2.24),
    ("LNLAMVYRYCCKLNKKLKSYHLSR [S21H]", 2.13),
    ("LNLDMVYRYCCKLNKKLKSYSLSR [A4D]", 4.12),
    ("LNLAMVYRYCCKRNKKLKSYSLSR [L13R]", 3.08),
    ("LNLWMVYRYCCKLNKKLKSYSLSR [A4W]", 1.8),
    ("LNLAMVYRYCCKLNKKLKSNSLSR [Y20N]", 2.16),
    ("LNLAMVTRYCCKLNKKLKSYSLSR [Y7T]", 3.96),
]

This collection of values is drawn from the supplement of paper PMC10567573.
